Tested on: Yersinia pseudotuberculosis YPIII
assay.overview: Inhibition of T3S in Yersinia pseudotuberculosis YPIII expressing yopE-luxAB at 3.13 uM after 3 hrs by luciferase reporter gene assay

>  <entry.smiles>
O=C(COc1ccc([N+](=O)[O-])cc1)N/N=C/c1cccc(F)c1O

>  <inhibition>
-5%

$$$$
>  <entry.smiles>
COc1ccc(Br)c(C(=O)N/N=C/c2ccc(Cl)cc2O)c1

>  <inhibition>
14%

$$$$
>  <entry.smiles>
O=C(CC12CC3CC(CC(C3)C1)C2)N/N=C/c1cc([N+](=O)[O-])cc([N+](=O)[O-])c1O

>  <inhibition>
-5%

$$$$

---

Tested on: Yersinia pseudotuberculosis YPIII
assay.overview: Inhibition of T3S in Yersinia pseudotuberculosis YPIII expressing yopE-luxAB at 200 uM after 3 hrs by luciferase reporter gene assay
Entries and their measured inhibition follow.

>  <entry.smiles>
COc1cc(C(=O)N/N=C/c2cc(Cl)cc(Cl)c2O)cc(OC)c1OC

>  <inhibition>
40%

$$$$
>  <entry.smiles>
COc1cccc(C(=O)N/N=C/c2cc(Br)ccc2O)c1

>  <inhibition>
77%

$$$$
>  <entry.smiles>
COc1cc(Br)cc(/C=N/NC(=O)c2sc3ccccc3c2Cl)c1O

>  <inhibition>
39%

$$$$
>  <entry.smiles>
CC(C)(C)c1cc(/C=N/NC(=O)c2cccc(C(F)(F)F)c2)c(O)c(C(C)(C)C)c1

>  <inhibition>
2%

$$$$
>  <entry.smiles>
CC(C)(C)c1ccc(O)c(/C=N/NC(=O)CC23CC4CC(CC(C4)C2)C3)c1

>  <inhibition>
-1%

$$$$
>  <entry.smiles>
COc1cc(/C=N/NC(=O)COc2ccc([N+](=O)[O-])cc2)c(O)c(OC)c1

>  <inhibition>
-2%

$$$$
